Documented kon across a set of binders
Target: T1, soluble human TF (human TF 1-219 with the FLAG peptide linked to the C-terminal) (human, UniProt P13726 33-251)
T1 construct: Entry is the whole soluble construct (TF 1-219 followed by FLAG peptide M2); also called soluble TF; shTF
T1 sequence (P13726 other isoform, or with tags, fused parts or gaps limits assumed): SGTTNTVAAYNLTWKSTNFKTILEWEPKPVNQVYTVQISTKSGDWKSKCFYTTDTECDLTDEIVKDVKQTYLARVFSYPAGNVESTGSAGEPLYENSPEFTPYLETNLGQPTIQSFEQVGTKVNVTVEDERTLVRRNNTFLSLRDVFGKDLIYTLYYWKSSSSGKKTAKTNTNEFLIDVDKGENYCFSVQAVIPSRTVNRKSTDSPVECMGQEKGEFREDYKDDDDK
Assay: BIACORE; antibody captured on Protein G chip, soluble TF as analyte; mean ± SD, n = 3
Procedure: Kinetic analysis of the antigen-antibody reaction was carried out using BIACORE. The recombinant Protein G was immobilized on a sensor chip, to which the antibody was coupled. […] From the sensorgram obtained, kinetic parameters (dissociation rate constants kdiss, and binding rate constants kass) were calculated. […] The data file of interest was read in, and the comparison of reaction patterns by superscription was made using as the baseline the sensorgram of the HBS-EP buffer. […]
Dear colleague, please return just the value in M⁻¹ s⁻¹, with no unit written.

1. H chain humanized version i/L chain humanized version b2 antibody (antibody, IgG4, V domains shown, also called i-b2; ib2) VH: QVQLLESGAVLARPGTSVKISCKASGFNIKDYYMHWVKQRPGQGLEWIGGNDPANGHSMYDPKFQGRVTITADTSTSTAYMELRSLRSDDTAVYYCARDSGYAMDYWGQGTLVTVSS VL: DIQMTQSPSSLSASVGDRVTITCKASQDIKSFLSWYQQKPEKAPKSLIYYATSLADGVPSRFSGSGSGTDYTLTISSLQPEDFATYYCLQHGESPYTFGGGTKVEIK	544000
2. H chain humanized version b/L chain humanized version b antibody (antibody, IgG4, V domains shown, also called b-b; bb) VH: QVQLLESGAVLARPGTSVKISCKASGFNIKDYYMHWVKQRPGQGLEWIGGNDPANGHSMYDPKFQGRVTITADTSTNTAYMELSSLRSEDTAIYYCARDSGYAMDYWGQGTLVTVSS VL: DIQMTQSPSSLSASVGDRVTITCKASQDIKSFLSWYQQKPGKAPKLLIYYATSLADGVPSRFSGSGSGTDYTLTISSLQPEDFATYYCLQHGESPYTFGGGTKVEIK	415000

Proceed to the following item.
Prompt line: For the binder H chain humanized version i/L chain humanized version b antibody (antibody, IgG4, V domains shown) VH: QVQLLESGAVLARPGTSVKISCKASGFNIKDYYMHWVKQRPGQGLEWIGGNDPANGHSMYDPKFQGRVTITADTSTSTAYMELRSLRSDDTAVYYCARDSGYAMDYWGQGTLVTVSS VL: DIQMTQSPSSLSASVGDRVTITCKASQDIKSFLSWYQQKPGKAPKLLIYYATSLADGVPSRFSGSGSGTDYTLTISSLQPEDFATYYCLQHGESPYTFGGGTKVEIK , give its measured kon value.
Response line: 467000
